Tested on: K562
Assay protocol: relative cell viability (ATPlite) vs untreated control, with imatinib (fraction); higher = less toxic
Condition context: 1 µM; 72 h; imatinib 0.125 µM
Each item that follows carries a reported relative cell viability.
Endpoint: relative cell viability

INSERT INTO measurements (compound, endpoint, result) VALUES
  ('COc1cc(SC)ccc1C(=O)N1CCC(Cc2ccccc2)CC1', 'relative cell viability', 0.716),
  ('CCCCc1c(-c2ccc(O)cc2)[nH]c2nccnc12', 'relative cell viability', 0.77),
  ('CC(=O)O/N=C1/C(c2c(O)[nH]c3cc(Br)ccc23)=Nc2ccccc21', 'relative cell viability', 0.76),
  ('CC(C)[C@H](CO)Nc1nc(Nc2cccc(Cl)c2)c2ncn(C(C)C)c2n1', 'relative cell viability', 0.75),
  ('CCCCc1c(-c2ccc(OC)cc2)[nH]c2nccnc12', 'relative cell viability', 0.819),
  ('O=C(c1ccc(Nc2nccc(-c3cc4ccccc4s3)n2)cc1)N1CCC(N2CCCC2)CC1', 'relative cell viability', 0.632),
  ('CC(C)n1cnc2c(NCc3ccccc3O)nc(NCCCO)nc21', 'relative cell viability', 0.779),
  ('Cc1ccc([N+](=O)[O-])cc1S(=O)(=O)N(C)/N=C/c1cnc2ccc(Br)cn12', 'relative cell viability', 0.681),
  ('CC(C)(C)c1ccc(S(=O)(=O)Nc2ccc(-n3ccnc3)cc2)cc1', 'relative cell viability', 0.742),
  ('Cn1c(O)c(-c2[nH]c3ccccc3c2N=O)c2ccc(Br)cc21 [GSK-3 Inhibitor IX, Control, MeBIO]', 'relative cell viability', 0.845),
  ('CC(C)(C)c1nc2c3cc[nH]c(=O)c3c3cc(F)ccc3c2[nH]1', 'relative cell viability', 0.72),
  ('COc1nccc(-c2c(-c3ccc(F)cc3)ncn2C2CCC(O)CC2)n1 (centres undefined)', 'relative cell viability', 0.794),
  ('O=C1c2ccccc2-c2nc3nnnn3nc21', 'relative cell viability', 0.0249),
  ('Cc1ncc2ccccc2c1C#N', 'relative cell viability', 0.828);

###

Tested on: K562
Assay protocol: relative cell viability (ATPlite) vs untreated control (fraction); higher = less toxic
Condition context: 1 µM; 72 h
Entries and their relative cell viability
Endpoint: relative cell viability

INSERT INTO assay_data (compound, endpoint, numeric_readout) VALUES
  ('CCC(CO)Nc1nc(NCc2ccccc2)c2ncn(C(C)C)c2n1 [Roscovitine, (S)-Isomer]', 'relative cell viability', 0.912),
  ('c1ccc(-c2cnc(Nc3ccc(OCCN4CCCC4)cc3)s2)cc1', 'relative cell viability', 0.916),
  ('CN1C(=O)C(Cc2c[nH]c3ccccc23)NC1=S (centres undefined)', 'relative cell viability', 0.921),
  ('CCC(=O)Nc1ccc2ncnc(Nc3cccc(Br)c3)c2c1', 'relative cell viability', 0.903);

###

System: IMR-90
Assay protocol: relative cell viability (ATPlite) vs untreated control (fraction); higher = less toxic
Condition context: 1 µM; 72 h
Endpoint: relative cell viability

INSERT INTO assay_data (compound, measured_on, numeric_readout) VALUES
  ('CCOc1nc(NC(=O)Cc2cc(OC)ccc2OC)cc(N)c1C#N', 'IMR-90', 0.992),
  ('COc1ccc2nc3n[nH]c(C)c3c(NCCOCCO)c2c1', 'IMR-90', 1),
  ('COc1cc2ncnc(Nc3ccc(Oc4ccccc4)cc3)c2cc1OC', 'IMR-90', 0.956),
  ('CCN(CC)CCCCN1c2ccccc2Oc2ccc(Cl)cc21', 'IMR-90', 0.889),
  ('O=C1NC(=O)C(c2cn(CCCO)c3ncccc23)=C1c1cnccn1', 'IMR-90', 1.02),
  ('O=C1Nc2ccc(Cl)cc2/C1=C/c1cc(Cl)c(O)c(Cl)c1 [PKR Inhibitor, Negative Control]', 'IMR-90', 0.968),
  ('CC(=O)O/N=C1/C(c2c(O)[nH]c3cc(Br)ccc23)=Nc2ccccc21', 'IMR-90', 0.903);
